molecular target: interaction between Supt4h and NGN (Homo sapiens, UniProt O00267+P63272); assay: Split Gaussia luciferase complementation assay (M2-8 cells); conditions: M2-8 cells, 24 hr; concentration at which signal was reduced to 50% of untreated
measured_metric: IC50

A selection of reference data follows.
compound | IC50
Cc1ccc2[nH]c3c(c2c1)CCCC3NCc1ccc(F)cc1 (stereo not shown) | < 1000 nM
O=C(NC1CCCc2c1[nH]c1ccc(Cl)cc21)c1ccccn1 (stereo not shown) | < 1000 nM
Brc1ccc2[nH]c3c(c2c1)CCCC3NC1CCCC1 (stereo not shown) | < 1000 nM
CC(C)Oc1ccc2[nH]c3c(c2c1)CCCC3NCCc1ccccc1 (stereo not shown) | > 1000 nM
CC(C)Oc1ccc2[nH]c3c(c2c1)CCCC3NC1CCCC1 (stereo not shown) | > 1000 nM

Look up IC50 for this compound: Cc1ccc2[nH]c3c(c2c1)CCCC3NCc1ccccc1 (stereo not shown)
< 1000 nM

State the recorded IC50 for this entry: CC(C)NC1CCCc2c1[nH]c1ccc(Br)cc21 (stereo not shown)
< 1000 nM

I would be grateful if you could share the reported IC50 for CC(C)NC1CCCc2c1[nH]c1ccc(OC(C)C)cc21 (stereo not shown) .
> 1000 nM

Requested field: IC50. Item: CCN1CCC(NC2CCCc3c2[nH]c2ccccc32)CC1 (stereo not shown)
> 1000 nM

# lookup: IC50 of Brc1ccc2[nH]c3c(c2c1)CCCC3NCc1ccccc1 (stereo not shown) [drawing 40]
< 1000 nM
